Data provenance: paper PMC3946342

- study.system: Rabbit lung ACE (Oryctolagus cuniculus, UniProt P12822)
- Sequence (P12822 34-1310): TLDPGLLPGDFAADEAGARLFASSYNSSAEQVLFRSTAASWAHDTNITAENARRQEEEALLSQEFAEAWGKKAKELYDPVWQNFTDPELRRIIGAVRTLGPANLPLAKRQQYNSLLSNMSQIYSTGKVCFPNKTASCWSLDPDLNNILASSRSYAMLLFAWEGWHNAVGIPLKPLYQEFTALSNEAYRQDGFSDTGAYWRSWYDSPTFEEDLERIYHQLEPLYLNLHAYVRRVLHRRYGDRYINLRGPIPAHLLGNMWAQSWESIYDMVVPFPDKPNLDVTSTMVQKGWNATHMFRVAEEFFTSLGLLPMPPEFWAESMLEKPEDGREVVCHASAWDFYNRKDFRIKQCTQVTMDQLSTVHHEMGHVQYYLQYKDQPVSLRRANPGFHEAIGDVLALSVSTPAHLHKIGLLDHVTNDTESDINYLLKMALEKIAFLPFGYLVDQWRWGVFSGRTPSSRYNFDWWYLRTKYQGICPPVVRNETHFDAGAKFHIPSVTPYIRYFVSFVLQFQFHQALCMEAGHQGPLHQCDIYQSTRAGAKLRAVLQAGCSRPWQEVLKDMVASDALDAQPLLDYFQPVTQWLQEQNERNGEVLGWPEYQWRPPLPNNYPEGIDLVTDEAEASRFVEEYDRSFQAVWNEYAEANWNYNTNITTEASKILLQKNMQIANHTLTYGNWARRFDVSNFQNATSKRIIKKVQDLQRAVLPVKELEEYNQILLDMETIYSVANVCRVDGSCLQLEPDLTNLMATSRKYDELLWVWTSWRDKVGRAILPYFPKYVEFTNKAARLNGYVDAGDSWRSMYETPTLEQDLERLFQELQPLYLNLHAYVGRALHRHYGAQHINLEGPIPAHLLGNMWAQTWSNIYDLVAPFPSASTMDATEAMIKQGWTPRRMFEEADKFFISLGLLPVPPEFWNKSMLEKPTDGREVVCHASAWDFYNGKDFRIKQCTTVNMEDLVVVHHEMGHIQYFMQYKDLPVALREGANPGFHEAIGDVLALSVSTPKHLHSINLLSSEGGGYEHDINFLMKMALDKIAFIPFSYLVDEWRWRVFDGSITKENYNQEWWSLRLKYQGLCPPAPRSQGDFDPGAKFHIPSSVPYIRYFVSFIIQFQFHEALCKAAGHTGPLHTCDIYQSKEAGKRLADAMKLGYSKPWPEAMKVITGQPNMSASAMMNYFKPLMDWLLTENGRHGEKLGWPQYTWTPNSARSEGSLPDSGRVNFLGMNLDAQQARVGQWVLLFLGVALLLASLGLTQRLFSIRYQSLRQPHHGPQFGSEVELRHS
Residues, ends and D or L forms follow the SMILES beside them.
measured.endpoint: pKi
Answers are plain numbers, as −log10 of the molar value.

# lookup: Rabbit lung ACE (Oryctolagus cuniculus, UniProt P12822) pKi, key = CC(C)C[C@H](NC(=O)[C@H](C)NC(=O)[C@@H](N)CCCNC(=N)N)C(=O)N1CCC[C@H]1C(=O)O [RALP, Arg-Ala-Leu-Pro] (H-RALP-OH)
3.98
